Tested on: OVCAR-3 ovarian
PROCEDURE SUMMARY: NCI tumour cell line growth inhibition, 48 h
READOUT: TGI (µM)

INSERT INTO results (compound, result_units, result_qualifier, value_measured) VALUES
  ('CSc1ccc(/C=C2\N=C(c3ccccc3)N(NC(=O)c3c(Cl)c(Cl)c(Cl)c(Cl)c3-c3nc4ccccc4[nH]3)C2=O)cc1', 'µM', '>', 100),
  ('C[C@H]1CC(=O)C[C@@H]2CC[C@@H]3[C@H](CC[C@]4(C)C(OC(=O)c5cccc6c(=O)c7ccccc7[nH]c56)CC[C@@H]34)[C@]21C (stereo not given in full)', 'µM', '>', 100),
  ('Cn1c2ccccc2n2c3ccccc3c3nnc(N)c-3c12', 'µM', '>', 100),
  ('COc1ccc2c(c1)SC1=Nc3sc4cc(OC)ccc4[n+]3CN12', 'µM', '=', 21.5),
  ('C#CC[C@]12CC(=O)CC[C@H]1CC1(C2)OCCO1', 'µM', '>', 100),
  ('NCCCc1nonc1C(=O)O', 'µM', '>', 100),
  ('CCN(CC)c1ccc(C=C2C(=O)NC(=S)NC2=O)cc1', 'µM', '=', 8.68),
  ('CCCN1CCCC(c2ccc(Nc3nc(Nc4cc(F)ccc4C(N)=O)c4cc[nH]c4n3)c(OC)c2)C1 (stereo not given)', 'µM', '=', 6),
  ('Cc1c(S(=O)(=O)/N=C(\NO)Nc2ccc(Cl)cc2)sc2ccc(Cl)cc12', 'µM', '=', 25.8),
  ('Nc1nc(N)c2nc(CNc3ccc(C(=O)NC(CCC(=O)O)C(=O)O)cc3)cnc2n1 (stereo not given)', 'µM', '>', 100),
  ('O=c1[nH]c(-c2ccncc2)nc2sc3c(c12)CCCCCC3', 'µM', '>', 100),
  ('COc1ccc2c(c1)c(-c1nc(-c3cn(C)c4ncccc34)cs1)cn2CCCCN1CCCCC1', 'µM', '=', 3.15),
  ('CN(C)CCC(C#N)(c1ccccc1)c1ccccc1', 'µM', '>', 100),
  ('CCn1nc(C#Cc2c(C)ccc3c(Nc4ccc(Cl)cc4)nccc23)c2c(N)ncnc21', 'µM', '>', 100),
  ('CCO/C=N\C1=C(C#N)SC2=N/C(=C\c3ccco3)C(=O)N21', 'µM', '>', 100),
  ('COC(=O)c1c(O)ccc2c1c1c(n2CCc2ccccc2)C(=O)c2ccccc2C1', 'µM', '=', 47.5),
  ('COc1cc(C(=O)N[C@@H]2CCCN(C)C2)ccc1Nc1ncc2c(n1)N(C1CCCC1)CC(C)(C)C(=O)N2C', 'µM', '=', 16.1),
  ('COC(=O)c1c(C(=O)OC)c2ccccn2c1-c1cc(C)cc2c1C(=O)C=CC2=O', 'µM', '=', 15.6),
  ('CC(=O)O[C@H]1CC[C@@]2(C)C(=CC[C@@H]3[C@@H]2CC[C@]2(C)C(=O)/C(=C\c4ccccc4)C[C@@H]32)C1', 'µM', '>', 100),
  ('Cc1c(Cl)ccc2[s+]snc12', 'µM', '>', 100),
  ('CN(C)c1ccc(-c2cc(-c3cccc(NS(C)(=O)=O)c3)nc(N)c2C#N)cc1', 'µM', '=', 0.0568),
  ('CCc1c(N=[N+]=[N-])c2ccccc2oc1=O', 'µM', '>', 100),
  ('Nc1ccc(Oc2ccc(C3(c4ccc(Oc5ccc(N)c(O)c5)cc4)C4CC5CC(C4)CC3C5)cc2)cc1O', 'µM', '=', 3.35),
  ('COc1cnc2c(c1)C(=O)c1c-2n(CCCN2CCNCC2)c(=O)c2cc(F)ccc12', 'µM', '=', 1.63),
  ('Nc1nc(-c2ccccn2)c(-c2ccc3ncccc3n2)s1', 'µM', '>', 25),
  ('Cc1cccc2c(=O)c3cccc(CC(=O)O)c3oc12', 'µM', '>', 100),
  ('COc1ccc(CC(COS(=O)(=O)c2ccc(C)cc2)NS(=O)(=O)c2ccc(C)cc2)cc1 (stereo not given)', 'µM', '=', 27.8),
  ('Cc1ccc(Nc2nc3ccccc3nc2NS(=O)(=O)c2ccc(N)cc2)cc1', 'µM', '>', 100),
  ('O=C1C/C(=C\c2ccccc2)C(=O)c2ccccc2N1', 'µM', '=', 50.5),
  ('COc1cc(Br)c(C2OCCCO2)cc1OCc1ccccc1', 'µM', '>', 100),
  ('CC1SC(c2ccc(OCc3ccccc3)cc2)N(NC(=O)C(O)(c2ccccc2)c2ccccc2)C1=O (stereo not given)', 'µM', '=', 6.1),
  ('CC/C(=C\c1ccc(N(C)C)cc1)c1ccncc1', 'µM', '=', 29.7),
  ('COc1ccc2c(c1)OCC1c3cc(OC)ccc3OC21 (stereo not given)', 'µM', '>', 100),
  ('COc1cc(CC2c3cc(OC)c(OC)cc3CCN2C)c(C(=O)O)cc1OC (stereo not given)', 'µM', '>', 100),
  ('O[C@@H]1CCCCN1Cc1cc2cc3c(cc2c2cc(OCc4ccccc4)ccc12)OCO3', 'µM', '=', 2.95),
  ('CCOc1cc(NC(C)=O)ccc1C(=O)NN1C(=O)/C(=C/c2ccc(Cl)cc2)N=C1c1ccccc1', 'µM', '>', 100),
  ('C[N+](C)(C)CC(=O)N/N=C\c1c(O)ccc2ccccc12', 'µM', '>', 100),
  ('CC(=O)OCCn1c(Cc2ccc(Cl)cc2)nn(C(C)=O)c1=O', 'µM', '>', 100),
  ('O=[N+]([O-])C1=Cc2c(O)ccc(O)c2C2c3ccccc3NC12 (stereo not given)', 'µM', '=', 19.3),
  ('O=[N+]([O-])c1cccc(-c2ccc([C@H]3CC(c4ccc(Cl)cc4)=NN3)o2)c1', 'µM', '=', 43.3);

Where do the numbers come from? From PubChem BioAssay (NCI).
